target of assay: Human immunodeficiency virus type 1 protease (Human immunodeficiency virus 1)
procedure details: In vivo antiviral activity (IC50) against HIV-1 protease.
Type: organism-based
measured quantity: ED50 (nM)

Some solved cases for reference:
- molecule: "COC(=O)N[C@H](C(=O)N[C@@H](Cc1ccccc1)C(O)CN(CC(C)C)NC(=O)[C@@H](NC(=O)OC)C(C)C)C(C)C (stereo partly specified)"
  unit annotation: "nM"
  ED50: 23
- molecule: "CC(C)CN(C[C@H](O)[C@H](Cc1ccccc1)NC(=O)[C@H](CC(N)=O)NC(=O)c1ccc2ccccc2n1)NC(=O)C(NC(=O)OCc1ccccc1)C(C)C (stereo partly specified)"
  unit annotation: "nM"
  ED50: 12

A: COC(=O)N[C@H](C(=O)N[C@@H](Cc1ccccc1)C(O)CN(Cc1cccs1)NC(=O)[C@@H](NC(=O)OC)C(C)C)C(C)C (stereo partly specified)
B: COC(=O)N[C@H](C(=O)N[C@@H](Cc1ccccc1)C(O)CN(Cc1ccc(C)cc1)NC(=O)[C@@H](NC(=O)OC)C(C)C)C(C)C (stereo partly specified)
C: COC(=O)N[C@H](C(=O)N[C@@H](Cc1ccccc1)C(O)CN(Cc1ccc(O)cc1)NC(=O)[C@@H](NC(=O)OC)C(C)C)C(C)C (stereo partly specified)
D: COC(=O)NC(C(=O)NN(CC(C)C)C[C@H](O)[C@H](Cc1ccccc1)NC(=O)[C@H](CC(N)=O)NC(=O)c1ccc2ccccc2n1)C(C)C (stereo partly specified)
Rank by ED50 (largest to smallest). Reply with the item labels sorted in the order that was asked for.
C, D, A, B
(C: 150 nM, D: 63 nM, A: 17 nM, B: 6.2 nM)
